System: HEK293
Assay: Selectivity for T-type and N-type [Ca2+] channels expressed in HEK293 cells at 10 uM
Assay type: cell-based
Conditions: Homo sapiens
readoutLabel: Selectivity
Answers are plain numbers.

Solved cases (3 shown):
[[record]]
molecule = "COC(=O)CC1c2ccccc2N=C(NCCCCCNC(=O)OC(C)(C)C)N1c1ccc(-c2ccccc2)cc1 (configuration not stated)"
readoutlabel = "Selectivity"
recordedvalue = 0.9

[[record]]
molecule = "CC(C)(C)OC(=O)NCCCCCN1C(Nc2ccc(-c3ccccc3)cc2)=Nc2ccccc2C1CC(=O)NCc1ccccc1 (configuration not stated)"
readoutlabel = "Selectivity"
recordedvalue = 2.9

[[record]]
molecule = "NCCCCCN1C(Nc2ccc(-c3ccccc3)cc2)=Nc2ccccc2C1CC(=O)NCc1ccccc1 (configuration not stated)"
readoutlabel = "Selectivity"
recordedvalue = 6


// each molecule listed below needs its Selectivity
1. COC(=O)CC1c2ccccc2N=C(Nc2ccc(-c3ccccc3)cc2)N1CCCCCNC(=O)OC(C)(C)C (configuration not stated)
2. CC(C)(C)OC(=O)NCCCCCNC1=Nc2ccccc2C(CC(=O)NCc2ccccc2)N1c1ccc(-c2ccccc2)cc1 (configuration not stated)

1. 0.9
2. 5.3

// each molecule listed below needs its Selectivity
1. COC(=O)CC1c2ccccc2N=C(Nc2ccc(-c3ccccc3)cc2)N1CCCCCN (configuration not stated)
2. NCCCCCNC1=Nc2ccccc2C(CC(=O)NCc2ccccc2)N1c1ccc(-c2ccccc2)cc1 (configuration not stated)

1. 11.2
2. 10.1

----------
I'd be grateful if you could share measured IC50 for these entries.
Target: Voltage-dependent T-type calcium channel subunit alpha-1G (Homo sapiens, UniProt O43497)
Sequence (O43497 whole entry): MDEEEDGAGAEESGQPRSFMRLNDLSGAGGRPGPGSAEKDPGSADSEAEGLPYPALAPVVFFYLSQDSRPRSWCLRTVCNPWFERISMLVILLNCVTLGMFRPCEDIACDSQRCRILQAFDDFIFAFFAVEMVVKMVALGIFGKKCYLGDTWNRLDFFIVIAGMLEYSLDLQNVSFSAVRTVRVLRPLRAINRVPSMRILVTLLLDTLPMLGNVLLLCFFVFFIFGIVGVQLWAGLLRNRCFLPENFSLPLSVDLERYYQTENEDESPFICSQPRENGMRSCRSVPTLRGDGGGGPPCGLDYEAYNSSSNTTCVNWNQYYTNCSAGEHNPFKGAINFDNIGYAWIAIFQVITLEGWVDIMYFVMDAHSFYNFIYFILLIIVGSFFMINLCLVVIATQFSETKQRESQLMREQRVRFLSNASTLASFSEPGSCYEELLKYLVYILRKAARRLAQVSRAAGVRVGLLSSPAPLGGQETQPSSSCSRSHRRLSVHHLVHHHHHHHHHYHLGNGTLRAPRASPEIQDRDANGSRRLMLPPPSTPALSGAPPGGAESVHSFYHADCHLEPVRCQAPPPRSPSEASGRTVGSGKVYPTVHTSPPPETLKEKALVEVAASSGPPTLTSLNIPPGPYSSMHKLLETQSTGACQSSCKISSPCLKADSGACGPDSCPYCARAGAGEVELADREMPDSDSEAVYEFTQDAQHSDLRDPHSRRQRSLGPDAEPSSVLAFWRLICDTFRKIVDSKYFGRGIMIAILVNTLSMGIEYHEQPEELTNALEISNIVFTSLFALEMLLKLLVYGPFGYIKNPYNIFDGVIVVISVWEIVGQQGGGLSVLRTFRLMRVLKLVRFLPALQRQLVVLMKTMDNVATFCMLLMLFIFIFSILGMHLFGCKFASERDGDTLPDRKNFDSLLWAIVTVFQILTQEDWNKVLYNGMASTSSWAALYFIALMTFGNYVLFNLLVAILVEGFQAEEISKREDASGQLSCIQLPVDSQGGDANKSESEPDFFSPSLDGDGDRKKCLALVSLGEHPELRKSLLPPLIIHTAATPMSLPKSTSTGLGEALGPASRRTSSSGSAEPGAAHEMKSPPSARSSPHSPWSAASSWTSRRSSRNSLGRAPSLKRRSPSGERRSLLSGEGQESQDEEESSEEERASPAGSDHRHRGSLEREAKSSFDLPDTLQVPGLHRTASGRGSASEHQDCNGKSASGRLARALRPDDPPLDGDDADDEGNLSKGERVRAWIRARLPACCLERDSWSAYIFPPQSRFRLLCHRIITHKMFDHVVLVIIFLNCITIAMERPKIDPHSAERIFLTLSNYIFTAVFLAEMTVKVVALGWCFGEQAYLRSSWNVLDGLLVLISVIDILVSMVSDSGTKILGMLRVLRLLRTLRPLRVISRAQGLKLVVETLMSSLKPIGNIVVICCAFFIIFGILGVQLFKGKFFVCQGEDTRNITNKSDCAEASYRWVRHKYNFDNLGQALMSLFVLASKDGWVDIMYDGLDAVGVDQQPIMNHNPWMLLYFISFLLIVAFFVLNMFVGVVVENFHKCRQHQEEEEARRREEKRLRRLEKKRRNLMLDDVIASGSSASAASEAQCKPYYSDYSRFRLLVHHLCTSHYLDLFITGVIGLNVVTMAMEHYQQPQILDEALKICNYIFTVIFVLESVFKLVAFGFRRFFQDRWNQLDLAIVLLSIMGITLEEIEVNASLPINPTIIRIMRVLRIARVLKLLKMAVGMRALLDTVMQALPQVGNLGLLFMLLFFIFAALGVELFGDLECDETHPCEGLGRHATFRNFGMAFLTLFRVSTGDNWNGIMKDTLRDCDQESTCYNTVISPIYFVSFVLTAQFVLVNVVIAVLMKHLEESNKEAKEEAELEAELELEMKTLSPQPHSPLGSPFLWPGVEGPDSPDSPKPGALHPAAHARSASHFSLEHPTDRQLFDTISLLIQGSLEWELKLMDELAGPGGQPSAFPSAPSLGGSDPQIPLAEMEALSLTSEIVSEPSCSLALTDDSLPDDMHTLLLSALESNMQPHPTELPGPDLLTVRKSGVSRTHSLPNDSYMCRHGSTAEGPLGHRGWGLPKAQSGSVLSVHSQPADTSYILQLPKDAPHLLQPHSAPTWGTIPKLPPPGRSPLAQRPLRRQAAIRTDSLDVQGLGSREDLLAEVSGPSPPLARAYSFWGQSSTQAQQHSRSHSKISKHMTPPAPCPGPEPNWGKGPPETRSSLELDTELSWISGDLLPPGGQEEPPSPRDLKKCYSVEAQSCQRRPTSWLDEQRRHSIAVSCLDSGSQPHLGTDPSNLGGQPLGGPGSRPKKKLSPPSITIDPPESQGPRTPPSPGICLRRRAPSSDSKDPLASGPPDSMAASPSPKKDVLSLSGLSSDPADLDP
Assay: Inhibition of T-type [Ca2+] channel (alpha1G) expressed in HEK293 cells
One number for each entry, in µM.

Solved cases (3 shown):
[[record]]
molecule = "CC(C)(C)OC(=O)NCCCCCN1C(Nc2ccc(-c3ccccc3)cc2)=Nc2ccccc2C1CC(=O)NCc1ccccc1 (centres undefined)"
targetentity = "Voltage-dependent T-type calcium channel subunit alpha-1G (Homo sapiens, UniProt O43497)"
readoutlabel = "IC50"
recordedvalue = 0.17

[[record]]
molecule = "COC(=O)CC1c2ccccc2N=C(Nc2ccc(-c3ccccc3)cc2)N1CCCCCNC(=O)OC(C)(C)C (centres undefined)"
targetentity = "Voltage-dependent T-type calcium channel subunit alpha-1G (Homo sapiens, UniProt O43497)"
readoutlabel = "IC50"
recordedvalue = 0.37

[[record]]
molecule = "Cc1ccc(S(=O)(=O)Nc2ccc(CNC(=O)CC3c4ccccc4N=C(N4CCCCC4)N3c3ccccc3)cc2)cc1 (centres undefined)"
targetentity = "Voltage-dependent T-type calcium channel subunit alpha-1G (Homo sapiens, UniProt O43497)"
readoutlabel = "IC50"
recordedvalue = 0.17


Continue with the molecule presented below.
// sample O=C(CC1c2ccccc2N=C(N2CCCCC2)N1c1ccccc1)NCc1ccc(NS(=O)(=O)c2ccc(F)cc2)cc1 (centres undefined) , its IC50 was 0.11

----------
Molecular target: Voltage-dependent T-type calcium channel subunit alpha-1H (Homo sapiens) (UniProt O95180)
Sequence (O95180 whole entry): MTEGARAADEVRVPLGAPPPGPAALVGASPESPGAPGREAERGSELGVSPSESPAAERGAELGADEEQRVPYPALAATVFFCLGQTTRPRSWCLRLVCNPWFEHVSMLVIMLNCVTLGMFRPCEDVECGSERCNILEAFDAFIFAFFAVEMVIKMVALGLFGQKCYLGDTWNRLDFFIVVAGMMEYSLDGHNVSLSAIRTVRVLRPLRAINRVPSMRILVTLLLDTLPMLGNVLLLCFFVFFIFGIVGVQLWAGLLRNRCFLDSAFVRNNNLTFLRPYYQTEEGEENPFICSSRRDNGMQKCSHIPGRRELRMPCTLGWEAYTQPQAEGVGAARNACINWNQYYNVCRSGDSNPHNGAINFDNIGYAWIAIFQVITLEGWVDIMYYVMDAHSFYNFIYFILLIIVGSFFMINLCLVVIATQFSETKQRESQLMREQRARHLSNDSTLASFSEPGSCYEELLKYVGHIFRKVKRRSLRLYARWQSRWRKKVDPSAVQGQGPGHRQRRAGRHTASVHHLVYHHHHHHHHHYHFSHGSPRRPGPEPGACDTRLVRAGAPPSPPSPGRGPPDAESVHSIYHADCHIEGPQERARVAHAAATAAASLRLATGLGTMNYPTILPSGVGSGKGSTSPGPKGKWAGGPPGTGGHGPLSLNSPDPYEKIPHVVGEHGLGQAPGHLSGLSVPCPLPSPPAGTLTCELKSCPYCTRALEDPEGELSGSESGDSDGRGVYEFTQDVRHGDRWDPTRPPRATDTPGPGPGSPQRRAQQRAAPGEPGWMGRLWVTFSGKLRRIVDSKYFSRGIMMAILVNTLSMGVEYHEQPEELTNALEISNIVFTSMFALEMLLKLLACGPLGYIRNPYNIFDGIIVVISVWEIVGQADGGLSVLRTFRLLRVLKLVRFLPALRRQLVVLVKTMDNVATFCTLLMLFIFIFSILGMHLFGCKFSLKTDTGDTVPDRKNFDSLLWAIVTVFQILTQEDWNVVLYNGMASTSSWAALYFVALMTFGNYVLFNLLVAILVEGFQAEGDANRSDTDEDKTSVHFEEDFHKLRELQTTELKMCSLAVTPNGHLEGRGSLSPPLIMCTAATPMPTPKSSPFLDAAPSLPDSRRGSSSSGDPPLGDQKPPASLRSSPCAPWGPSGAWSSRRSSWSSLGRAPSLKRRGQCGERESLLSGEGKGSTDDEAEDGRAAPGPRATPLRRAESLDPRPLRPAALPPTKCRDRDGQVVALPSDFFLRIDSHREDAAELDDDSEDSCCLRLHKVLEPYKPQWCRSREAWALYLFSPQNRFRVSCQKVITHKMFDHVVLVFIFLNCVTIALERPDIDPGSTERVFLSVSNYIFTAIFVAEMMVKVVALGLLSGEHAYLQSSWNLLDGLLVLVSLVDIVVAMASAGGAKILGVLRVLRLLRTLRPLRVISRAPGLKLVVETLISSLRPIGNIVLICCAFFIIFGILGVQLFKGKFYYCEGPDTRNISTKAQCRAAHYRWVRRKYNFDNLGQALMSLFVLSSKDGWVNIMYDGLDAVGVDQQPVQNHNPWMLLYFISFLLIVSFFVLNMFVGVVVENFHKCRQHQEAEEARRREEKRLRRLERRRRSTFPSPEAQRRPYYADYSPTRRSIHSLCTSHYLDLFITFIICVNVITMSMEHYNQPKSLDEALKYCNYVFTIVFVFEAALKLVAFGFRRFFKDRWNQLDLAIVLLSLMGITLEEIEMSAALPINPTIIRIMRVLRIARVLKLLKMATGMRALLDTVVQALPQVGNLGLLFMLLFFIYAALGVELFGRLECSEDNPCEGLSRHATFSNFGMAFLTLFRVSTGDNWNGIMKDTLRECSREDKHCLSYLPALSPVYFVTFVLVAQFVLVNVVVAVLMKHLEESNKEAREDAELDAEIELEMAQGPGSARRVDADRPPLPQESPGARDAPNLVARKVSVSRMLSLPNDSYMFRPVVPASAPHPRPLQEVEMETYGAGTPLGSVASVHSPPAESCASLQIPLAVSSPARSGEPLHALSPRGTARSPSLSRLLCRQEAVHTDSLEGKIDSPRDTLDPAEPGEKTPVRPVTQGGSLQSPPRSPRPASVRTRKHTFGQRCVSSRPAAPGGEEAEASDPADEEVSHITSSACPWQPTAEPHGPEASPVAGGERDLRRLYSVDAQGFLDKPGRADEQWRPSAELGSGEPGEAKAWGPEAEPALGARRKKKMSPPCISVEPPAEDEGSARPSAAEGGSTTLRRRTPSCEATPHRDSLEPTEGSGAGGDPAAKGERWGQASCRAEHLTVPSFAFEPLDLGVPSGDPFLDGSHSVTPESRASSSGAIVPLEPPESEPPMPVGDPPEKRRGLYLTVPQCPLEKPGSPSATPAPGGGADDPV
Assay: Percent inhibition of T-type [Ca2+] channel (alpha1H) stably expressed in Xenopus oocytes at 100 uM
Assay type: cell-based
Conditions: Oocyte
readoutLabel: inhibition (%)
Give bare numbers, in %.

Solved cases (2 shown):
[[record]]
compound = "COC(=O)CC1c2ccccc2N=C(Nc2ccc(-c3ccccc3)cc2)N1CCCCCN (stereo not drawn)"
targetentity = "Voltage-dependent T-type calcium channel subunit alpha-1H (Homo sapiens) (UniProt O95180)"
readoutlabel = "inhibition"
unitstext = "%"
recordedvalue = 94.6

[[record]]
compound = "COC(=O)CC1c2ccccc2N=C(NCCCCCNC(=O)OC(C)(C)C)N1c1ccc(-c2ccccc2)cc1 (stereo not drawn)"
targetentity = "Voltage-dependent T-type calcium channel subunit alpha-1H (Homo sapiens) (UniProt O95180)"
readoutlabel = "inhibition"
unitstext = "%"
recordedvalue = 92.2


// each compound listed below needs its inhibition
1. CC(C)(C)OC(=O)NCCCCCNC1=Nc2ccccc2C(CC(=O)NCc2ccccc2)N1c1ccc(-c2ccccc2)cc1 (stereo not drawn)
2. NCCCCCNC1=Nc2ccccc2C(CC(=O)NCc2ccccc2)N1c1ccc(-c2ccccc2)cc1 (stereo not drawn)
3. CC(C)(C)OC(=O)NCCCCCN1C(Nc2ccc(-c3ccccc3)cc2)=Nc2ccccc2C1CC(=O)NCc1ccccc1 (stereo not drawn)

84.2
80.1
91.2

// each compound listed below needs its inhibition
1. COC(=O)CC1c2ccccc2N=C(Nc2ccc(-c3ccccc3)cc2)N1CCCCCNC(=O)OC(C)(C)C (stereo not drawn)
2. COC(=O)CC1c2ccccc2N=C(NCCCCCN)N1c1ccc(-c2ccccc2)cc1 (stereo not drawn)
3. NCCCCCN1C(Nc2ccc(-c3ccccc3)cc2)=Nc2ccccc2C1CC(=O)NCc1ccccc1 (stereo not drawn)

1: 96.5; 2: 97; 3: 97
